B1: TPR 5TU (parent)
chain: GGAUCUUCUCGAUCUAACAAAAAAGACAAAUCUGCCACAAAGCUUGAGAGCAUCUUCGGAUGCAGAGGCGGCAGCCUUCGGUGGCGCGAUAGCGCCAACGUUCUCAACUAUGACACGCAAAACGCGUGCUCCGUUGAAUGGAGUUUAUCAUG

# Variants of: B1
# measurement-notes: polymerase ribozyme fitness, log enrichment relative to wild type (log ratio); higher = more active; in vitro selection for triplet polymerase activity
Variants at the floor of the assay were thinned out.
Below, each of the variants is paired with its reported polymerase ribozyme fitness (log ratio) value.

mutation-code	polymerase ribozyme fitness (log ratio)
C85G C99U G112U C118U	≤ -4.2
G48C C51U C85U C129A U145C	≤ -4.2
G50C C93A	≤ -4.2
U55A A73U C75U C93U G100A U139A U144G	≤ -4.2
U13C C51G C54G C75U G83U	≤ -4.2
A23U U109A	≤ -4.2
U77G G86U U102C G140C	≤ -4.2
A28U G80A A91U	≤ -4.2
C54U U56A G71A A107C A150C	≤ -4.2
A26U U45A G83U G92C A122U	≤ -4.2
U7A C18U A91U A97U U102C U144G	≤ -4.2
U7A G25A G50U G84U	≤ -4.2
G11U A26U U61G G84U C85A C96A U139A	≤ -4.2
C5G A17G A20U C57U A66U G86C A107G C108A	≤ -4.2
C79U A91U C125A	≤ -4.2
A41C U44A G84A U146G	≤ -4.2
A16U C32A C35G A47C G58C G68A G70U C96G G126C	≤ -4.2
A20U A47U A89U C96U G128U	≤ -4.2
C10U A107G	≤ -4.2
A28U A47C G74C C95U A142C C149A	≤ -4.2
U53G C93A C95A A97U A98C G100U U130G G140U	≤ -4.2
U31A G65U C93G U135C	≤ -4.2
C75A C76U G86U A106U G126A U148C C149A	≤ -4.2
C79A C93A C95U	≤ -4.2
C43A C57G G84A	≤ -4.2
U13G A40U A60C	≤ -4.2
A16G A19U G48A C54A U101G C108A A137C A150C	≤ -4.2
A21C A60G A73U C93G A137U	≤ -4.2
C10A G34U C57U C76U C95G C116G	≤ -4.2
U7C A12C C87A C105A C116G A138U G152U	≤ -4.2
